Molecular target: T1, Cynomolgus Factor P (cynomolgus)
T1 construct: Purified from cynomolgus serum for SET/Biacore; Factor P of cynomolgus serum in the functional assays; also called Cyno Factor P; cyno FP
Assay: Biacore SPR, captured Factor P
PROPERTY_NAME: kon (M⁻¹ s⁻¹)
Please respond with the number in M⁻¹ s⁻¹ and leave the unit unwritten.

- BINDER: "NVS962-S (Fab, V domains shown, NVS962 with heavy chain N30 replaced with serine) VH: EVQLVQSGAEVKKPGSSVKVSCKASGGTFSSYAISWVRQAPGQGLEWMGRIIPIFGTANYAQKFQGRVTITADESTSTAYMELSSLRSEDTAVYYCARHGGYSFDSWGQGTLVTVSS VL: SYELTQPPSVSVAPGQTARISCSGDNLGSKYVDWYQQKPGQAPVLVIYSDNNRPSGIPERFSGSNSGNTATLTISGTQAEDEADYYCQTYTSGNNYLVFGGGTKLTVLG"
  kon / M⁻¹ s⁻¹: 524000
- BINDER: "NVS962-S31A (Fab, V domains shown, NVS962 with heavy chain serine 31 replaced with alanine) VH: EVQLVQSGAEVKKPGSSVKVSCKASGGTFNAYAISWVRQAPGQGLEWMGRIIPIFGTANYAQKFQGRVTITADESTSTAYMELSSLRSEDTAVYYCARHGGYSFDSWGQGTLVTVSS VL: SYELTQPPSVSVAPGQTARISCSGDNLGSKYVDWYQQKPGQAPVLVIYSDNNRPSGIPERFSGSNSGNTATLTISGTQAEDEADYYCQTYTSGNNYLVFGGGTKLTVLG"
  kon / M⁻¹ s⁻¹: 372000

Now for the binder whose kon we want.
Prompt line: Please give the documented kon of NVS967 (Fab, V domains shown, Disulfide-bridged Fab; also called Fab NVS967) VH: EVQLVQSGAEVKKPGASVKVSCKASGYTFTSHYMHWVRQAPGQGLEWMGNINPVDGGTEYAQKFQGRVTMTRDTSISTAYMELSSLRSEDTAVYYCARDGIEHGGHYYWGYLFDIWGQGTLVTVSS VL: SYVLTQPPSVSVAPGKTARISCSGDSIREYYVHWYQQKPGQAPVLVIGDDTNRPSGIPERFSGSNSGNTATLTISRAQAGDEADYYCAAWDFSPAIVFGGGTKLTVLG
Response line: 1e+06
